SYSTEM NAME: T1, HLA-A*01:01 (human, biotinylated heavy chain)
T1 construct: Conditional HLA class I complex (heavy chain + B2M) first held by a UV-labile peptide; the tested peptide is exchanged in after UV cleavage
METHOD NOTES: UV peptide exchange; HLA class I ELISA
QUANTITY KIND: Exch I (%)

KQLIAMDSA [Peptide 9, 9-mer KQLIAMDSA derived from P22 (SEQ ID NO: 1003)] | 6.3
LYHREKQLI [Peptide 5, 9-mer LYHREKQLI derived from P22 (SEQ ID NO: 1003)] | 6.2
SLYHREKQL [Peptide 4, 9-mer SLYHREKQL derived from P22 (SEQ ID NO: 1003)] | 6.7
SLIAMDSAI [Peptide 3, 9-mer SLIAMDSAI derived from FUS1 (SEQ ID NO: 1001)] | 6.9
IAMDSAITL [Peptide 2, 9-mer IAMDSAITL derived from FUS1 (SEQ ID NO: 1001)] | 6.7
